TEST_DETAILS: chemical genetic growth profiling, strain panel (AID 1159580);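 note: tested at 20 µM; growth read once vehicle control cultures reached saturation at 30 °C; 1 = growth at the plate median or of vehicle wells; lower values mean less growth of the strain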
CONDITION_LABEL: S. cerevisiae deletion strains, growth OD, locus YBR279W, strain paf1, active compounds read low
The campaign covered roughly 5,500 compounds. About 2,000 (36%) were called active. Not shown: some 18% with an inconclusive outcome. This is one part of the list.
VALUE_TYPE: normalized growth
Give bare numbers.

Record excerpt, results attached:
[
  {
    "COMPOUND": "COc1cc(Cc2cnc(N)nc2N)cc(OC)c1OC",
    "normalized growth": 1.02
  },
  {
    "COMPOUND": "O=C1NS(=O)(=O)c2ccccc21",
    "normalized growth": 1.01
  },
  {
    "COMPOUND": "COc1cc([C@@H]2c3cc4c(cc3[C@H](O)[C@H]3COC(=O)[C@H]23)OCO4)cc(OC)c1OC",
    "normalized growth": 1.02
  },
  {
    "COMPOUND": "O=C1c2cccc(O)c2C(=O)c2c(O)cccc21",
    "normalized growth": 0.905
  },
  {
    "COMPOUND": "O=C(O)c1cc(=O)c2ccccc2[nH]1",
    "normalized growth": 0.992
  },
  {
    "COMPOUND": "COc1ccc(-c2c(O)c3c(OC)c4c(cc3oc2=O)OC(C)(C)C=C4)cc1",
    "normalized growth": 0.972
  },
  {
    "COMPOUND": "O=C1C=CC(=O)c2ccccc21",
    "normalized growth": 0.0871
  },
  {
    "COMPOUND": "CC(C)N1C(=O)c2ccccc2NS1(=O)=O",
    "normalized growth": 0.977
  }
]

Quick batch: normalized growth for everything below.
1. Cc1cc(O)c2c(c1)C(=O)c1cccc(O)c1C2=O
2. CNC(C)(C)Cc1ccccc1
3. COC1=CC23CCCN2CCc2cc4c(cc2C3C1O)OCO4 (configuration not stated)
4. COc1cc(OC)c2c(OC)c(-c3ccc4c(c3)OCO4)c(=O)oc2c1

A.
[1, 1.01, 1.03, 0.969]
